# target_system: Collagenase-3 (MMP-13) (Homo sapiens)
# test_description: Collagenase-3 (MMP-13) inhibitory activity, fluorogenic peptide substrate cleavage
# Type: biochemical
# run_conditions: read-out: MMP13 IC50
measured_attribute: IC50 (nM)

Past entries and their recorded results:
COc1ccc(C(=O)c2ccc(SC)c(S(N)(=O)=O)c2)cc1 [Example 7]	3720
NS(=O)(=O)c1cc(C(=O)c2ccc(C(=O)NCCc3ccccn3)cc2)ccc1Cl [Example 36]	8540
COc1ccc(C(=O)c2ccc(Cl)c(S(=O)(=O)NCCc3ccc(F)cc3)c2)cc1 [Example 13]	6900

(A) CC1CCCN(c2ccc(C(=O)c3ccc(Cl)c(S(N)(=O)=O)c3)cc2)C1 (centres unmarked) [Example 84]
(B) Cc1noc(C)c1-c1c[nH]c2cc(C(=O)c3ccc(Cl)c(S(N)(=O)=O)c3)ccc12 [Example 133]
(C) COc1ccc(C(=O)c2ccc(F)c(S(N)(=O)=O)c2)cc1 [Example 2]
(D) NS(=O)(=O)c1cc(C(=O)c2ccc3c(-c4cncnc4)c[nH]c3c2)ccc1Cl [Example 131]
(E) NS(=O)(=O)c1cccc(C(=O)c2ccc3c(-c4ccnc(CCCN5CCOCC5)c4)c[nH]c3c2)c1 [Example 14]
List items by IC50 in falling order. Give the order by naming the labels one after another as requested.
A, C, B, D, E
